Origin of the recorded values: ChEMBL document CHEMBL1156894

- assayRemarks: Tmax in rat at 10 mg/kg, po in 1% methylcellulose
- Assay type: ADME, organism-based
- Parameters: dose 10 mg/kg, route oral
- conditionNotes: in vivo
readoutLabel: Tmax (h)

>>> print(df.to_string())
                            molecularstring  readoutlabel  reportedvalue
0  CN(C)CCOc1cc(Cl)cc(-c2nnc(CC(=O)N3CCC(N4CCc5ccccc5NC4=O)CC3)o2)c1          Tmax              3

----------
Readings of solubility at 1 h for the listed compounds
- assayRemarks: Aqueous solubility in fasted-state simulated intestinal fluid after 1 hr
- Assay type: physicochemical
readoutLabel: solubility at 1 h (µg/mL)

>>> df
                            molecularstring       readoutlabel  operatorsymbol  reportedvalue
0  CN1CCN(c2cc(Cl)cc(-c3nnc(CC(=O)N4CCC(n5c(=O)[nH]c6ncccc65)CC4)o3)c2)CC1  solubility at 1 h               =            210
1  CCN1CCC(c2cc(Cl)cc(-c3nnc(CC(=O)N4CCC(n5c(=O)[nH]c6ncccc65)CC4)o3)c2)CC1  solubility at 1 h               =            565
2  O=C(Cc1nnc(-c2cc(Cl)cc(N3CCOCC3)c2)o1)N1CCC(n2c(=O)[nH]c3ncccc32)CC1  solubility at 1 h               =             40
3  Cc1ccc(-c2cc(Cl)cc(-c3nnc(CC(=O)N4CCC(n5c(=O)[nH]c6ncccc65)CC4)o3)c2)cn1  solubility at 1 h               <              1
4  CN1CCC(c2cc(Cl)cc(-c3nnc(CC(=O)N4CCC(n5c(=O)[nH]c6ncccc65)CC4)o3)c2)CC1  solubility at 1 h               =            531
5  Cc1ncc(-c2cc(Cl)cc(-c3nnc(CC(=O)N4CCC(n5c(=O)[nH]c6ncccc65)CC4)o3)c2)n1C  solubility at 1 h               =            390
6  CN(C)CCOc1cc(Cl)cc(-c2nnc(CC(=O)N3CCC(n4c(=O)[nH]c5ncccc54)CC3)o2)c1  solubility at 1 h               =            330
7  O=C(Cc1nnc(-c2cc(Cl)cc(C3CCN(CC(F)F)CC3)c2)o1)N1CCC(n2c(=O)[nH]c3ncccc32)CC1  solubility at 1 h               =             10
8  CN(C)CCOc1cc(Cl)cc(-c2nnc(CC(=O)N3CCC(N4CCc5ccccc5NC4=O)CC3)o2)c1  solubility at 1 h               =            120
